Entry source: paper PMC4306533

system: heIF4E1b (Homo sapiens)
Construct: made in house; host or cells: E. coli Rosetta2(DE3)
Sequence (A6NMX2 whole entry): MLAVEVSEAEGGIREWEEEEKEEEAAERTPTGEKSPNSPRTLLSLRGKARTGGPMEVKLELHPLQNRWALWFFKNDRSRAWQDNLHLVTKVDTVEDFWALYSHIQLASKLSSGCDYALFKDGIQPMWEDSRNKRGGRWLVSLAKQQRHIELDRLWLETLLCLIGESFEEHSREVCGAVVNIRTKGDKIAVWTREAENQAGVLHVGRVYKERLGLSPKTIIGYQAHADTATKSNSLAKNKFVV
experimentalProtocol: time-synchronized fluorescence titration of cap analogue binding
conditionNotes: change relative to m^7GTP; without glycerol
testReadout: ΔΔG^o − glycerol heIF4E1b (kcal/mol)
Give the quantity in kcal/mol, number only.

Below: 3 compounds and their reported ΔΔG^o − glycerol heIF4E1b.
CCn1c[n+]([C@@H]2O[C@H](COP(=O)(O)OP(=O)(O)OP(=O)(O)O)[C@@H](O)[C@H]2O)c2nc(N)[nH]c(=O)c21 [et^7GTP]
0.639
CN(C)c1nc2c(c(=O)[nH]1)[n+](C)cn2[C@@H]1O[C@H](COP(=O)(O)OP(=O)(O)OP(=O)(O)O)[C@@H](O)[C@H]1O [m^2,2,7GTP]
2.557
Cn1c[n+]([C@@H]2O[C@H](COP(=O)(O)OP(=O)(O)OP(=O)(O)OC[C@H]3O[C@@H](n4cnc5c(N)ncnc54)[C@H](O)[C@@H]3O)[C@@H](O)[C@H]2O)c2nc(N)[nH]c(=O)c21 [m^7GpppA]
1.352

Consider the record given below.
Query: State its ΔΔG^o − glycerol heIF4E1b on heIF4E1b (Homo sapiens): Cn1c[n+]([C@@H]2O[C@H](COP(=O)(O)OP(=O)([O-])OP(=O)(O)OC[C@H]3O[C@@H](n4cnc5c(=O)[nH]c(N)nc54)[C@H](O)[C@@H]3O)[C@@H](O)[C@H]2O)c2nc(N)[nH]c(=O)c21 [m^7GpppG]
Reply: 1.065

* * *

System: heIF4E1b
experimentalProtocol: time-synchronized fluorescence titration of cap analogue binding
Set-up: species or system human
conditionNotes: without glycerol
Assign true to entries whose Ratio Kas (h4E1a) to Kas (h4E1b) meets or exceeds 1; assign false to the rest.

Query: Identify whether the reported Ratio Kas (h4E1a) to Kas (h4E1b) of the following compound is 1 or greater: Nc1nc2c(ncn2[C@@H]2O[C@H](COP(=O)(O)OP(=O)(O)OP(=O)(O)O)[C@@H](O)[C@H]2O)c(=O)[nH]1 [GTP, reference compound]
Reply: false

Query: Confirm if Ratio Kas (h4E1a) to Kas (h4E1b) reported for the compound COC1C(O)C(COP(=O)(O)OP(=O)(O)OP(=O)(O)OCC2OC(n3cnc4c(=O)[nH]c(N)nc43)C(O)C2O)OC1n1c[n+](C)c2c(=O)[nH]c(N)nc21 (centres unmarked) is 1 or above.
Reply: true

* * *

system: XeIF4E1a (Xenopus laevis)
Construct: made in house; host or cells: E. coli Rosetta2(DE3)
Sequence (P48597 whole entry): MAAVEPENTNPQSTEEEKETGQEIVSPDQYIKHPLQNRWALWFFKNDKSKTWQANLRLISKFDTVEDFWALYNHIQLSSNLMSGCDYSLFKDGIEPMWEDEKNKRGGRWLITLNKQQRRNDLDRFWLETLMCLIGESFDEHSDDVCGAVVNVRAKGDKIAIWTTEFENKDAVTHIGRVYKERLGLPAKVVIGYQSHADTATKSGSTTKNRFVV
experimentalProtocol: time-synchronized fluorescence titration of cap analogue binding
conditionNotes: equilibrium association constant; buffer without glycerol
testReadout: Kas − glycerol XeIF4E1a

Nc1nc2c(ncn2[C@@H]2O[C@H](COP(=O)(O)OP(=O)(O)OP(=O)(O)O)[C@@H](O)[C@H]2O)c(=O)[nH]1 [GTP, reference compound]
0.031 ± 0.006 μM^− 1
Cn1c[n+]([C@@H]2O[C@H](COP(=O)(O)OP(=O)(O)OP(=O)(O)OP(=O)(O)O)[C@@H](O)[C@H]2O)c2nc(N)[nH]c(=O)c21
268 ± 10 μM^− 1
CCn1c[n+]([C@@H]2O[C@H](COP(=O)(O)OP(=O)(O)OP(=O)(O)O)[C@@H](O)[C@H]2O)c2nc(N)[nH]c(=O)c21
7.89 ± 0.57 μM^− 1
Cn1c[n+]([C@@H]2O[C@H](COP(=O)(O)OP(=O)(O)OP(=O)(O)OC[C@H]3O[C@@H](n4cnc5c(N)ncnc54)[C@H](O)[C@@H]3O)[C@@H](O)[C@H]2O)c2nc(N)[nH]c(=O)c21
2.015 ± 0.028 μM^− 1
Cn1c[n+]([C@@H]2O[C@H](COP(=O)(O)OP(=O)(O)OP(=O)(O)OP(=O)(O)OP(=O)(O)O)[C@@H](O)[C@H]2O)c2nc(N)[nH]c(=O)c21
378 ± 44 μM^− 1

Query: What measured Kas − glycerol XeIF4E1a goes with Cn1c[n+]([C@@H]2O[C@H](COP(=O)(O)OP(=O)([O-])O)[C@@H](O)[C@H]2O)c2nc(N)[nH]c(=O)c21 ?
Reply: 11.42 ± 0.50 μM^− 1

Query: I'd like to know its Kas − glycerol XeIF4E1a. The compound in question is Nc1nc2c(c(=O)[nH]1)n(Cc1ccccc1)c[n+]2[C@@H]1O[C@H](COP(=O)(O)OP(=O)(O)O)[C@@H](O)[C@H]1O
Reply: 10.62 ± 0.98 μM^− 1

Query: Looking for the measured Kas − glycerol XeIF4E1a of Cn1c[n+]([C@@H]2O[C@H](COP(=O)([O-])OP(=O)(O)OP(=O)(O)O)[C@@H](O)[C@H]2O)c2nc(N)[nH]c(=O)c21 , can you help?
Reply: 42.8 ± 2.0 μM^− 1

Query: // query Kas − glycerol XeIF4E1a value for entry Cn1c[n+]([C@@H]2O[C@H](COP(=O)(O)O)[C@@H](O)[C@H]2O)c2nc(N)[nH]c(=O)c21
Reply: 0.567 ± 0.012 μM^− 1

Query: Value lookup for Kas − glycerol XeIF4E1a; key = Cn1c[n+]([C@@H]2O[C@H](COP(=O)(O)OP(=O)([O-])OP(=O)(O)OC[C@H]3O[C@@H](n4cnc5c(=O)[nH]c(N)nc54)[C@H](O)[C@@H]3O)[C@@H](O)[C@H]2O)c2nc(N)[nH]c(=O)c21
Reply: 3.98 ± 0.11 μM^− 1

Query: # Kas − glycerol XeIF4E1a lookup, item CN(C)c1nc2c(c(=O)[nH]1)[n+](C)cn2[C@@H]1O[C@H](COP(=O)(O)OP(=O)(O)OP(=O)(O)O)[C@@H](O)[C@H]1O
Reply: 0.295 ± 0.021 μM^− 1

* * *

system: XeIF4E1a (Xenopus laevis)
Construct: made in house; host or cells: E. coli Rosetta2(DE3)
experimentalProtocol: time-synchronized fluorescence titration of cap analogue binding
conditionNotes: equilibrium association constant; 10% glycerol
Lab note: anything with Kas + glycerol XeIF4E1a below 5 μM^− 1 is marked Y; values at 5 μM^− 1 or higher are marked N.

Field: example entries. Status: answers known.
Cn1c[n+]([C@@H]2O[C@H](COP(=O)(O)OP(=O)(O)OP(=O)(O)OC[C@H]3O[C@@H](n4cnc5c(N)ncnc54)[C@H](O)[C@@H]3O)[C@@H](O)[C@H]2O)c2nc(N)[nH]c(=O)c21 [m^7GpppA]
Y
CO[C@@H]1[C@H](O)[C@@H](COP(=O)(O)OP(=O)(O)OP(=O)(O)OC[C@H]2O[C@@H](n3c[n+](C)c4c(=O)[nH]c(N)nc43)[C@H](O)[C@@H]2O)O[C@H]1n1cnc2c(=O)[nH]c(N)nc21 [m^7Gpppm^2′-OG]
Y
COC1C(O)C(COP(=O)(O)OP(=O)(O)OP(=O)(O)OCC2OC(n3cnc4c(=O)[nH]c(N)nc43)C(O)C2O)OC1n1c[n+](C)c2c(=O)[nH]c(N)nc21 (stereo not shown) [m^7,2′-OGpppG]
Y
Nc1nc2c(c(=O)[nH]1)n(Cc1ccccc1)c[n+]2[C@@H]1O[C@H](COP(=O)(O)OP(=O)(O)O)[C@@H](O)[C@H]1O [bn^7GDP]
N
Cn1c[n+]([C@@H]2O[C@H](COP(=O)(O)OP(=O)([O-])O)[C@@H](O)[C@H]2O)c2nc(N)[nH]c(=O)c21 [m^7GDP]
N

Please examine the following record next.
Query: Find out if reported Kas + glycerol XeIF4E1a for CN(C)c1nc2c(c(=O)[nH]1)[n+](C)cn2[C@@H]1O[C@H](COP(=O)(O)OP(=O)(O)OP(=O)(O)O)[C@@H](O)[C@H]1O [m^2,2,7GTP] is less than 5 μM^− 1
Reply: Y

* * *

system: X4E1a1 (E101S) (Xenopus laevis, UniProt P48597, E101S)
Construct: made in house; host or cells: E. coli Rosetta2(DE3)
Sequence (P48597 whole entry E101S): as the sequence (P48597 whole entry) above, with E101S counted along it
experimentalProtocol: fluorescence titration, XeIF4E1a mutant
Format: binding
conditionNotes: mutant (E101S) of XeIF4E1a
Property: Kas X4E1a1; scope: individual compounds

Query: Quick one: Kas X4E1a1 of Nc1nc2c(c(=O)[nH]1)n(Cc1ccccc1)c[n+]2[C@@H]1O[C@H](COP(=O)(O)OP(=O)(O)O)[C@@H](O)[C@H]1O ?
Reply: 9.01 ± 0.21 µM⁻¹

Query: Endpoint output: Kas X4E1a1 of Cn1c[n+]([C@@H]2O[C@H](COP(=O)([O-])OP(=O)(O)OP(=O)(O)O)[C@@H](O)[C@H]2O)c2nc(N)[nH]c(=O)c21 . Value?
Reply: 33.58 ± 0.66 µM⁻¹

Query: Looking for the measured Kas X4E1a1 of CCn1c[n+]([C@@H]2O[C@H](COP(=O)(O)OP(=O)(O)OP(=O)(O)O)[C@@H](O)[C@H]2O)c2nc(N)[nH]c(=O)c21 , can you help?
Reply: 7.14 ± 0.63 µM⁻¹
